- assay comment: Oral bioavailability in rat at 5 mg/kg
- Assay type: ADME, organism-based
- experimental context: in vivo
measure: bioavailability (%)
# number only, unit % dropped from output

Input line: Returns the measured bioavailability for the input compound. Input: c1cc(CNc2cc3c(cn2)[nH]c2ccccc23)cc(Oc2ccc3c(c2)OCO3)c1
Output line: 30.7

* * *

- Tested on: MCF7
- assay comment: Antiproliferative activity against human MCF7 cells assessed as reduction in cell viability measured after 24 hrs by MTT assay
- Assay type: functional, cell-based
- experimental context: MCF7, 24 h
measure: pIC50
Note on pIC50: it is the negative log10 of concentration, concentration in mol/L.

Input line: Returns the measured pIC50 for the input molecule. Input: CCCCNc1cc2c(cn1)[nH]c1ccccc12
Output line: 6.29

Input line: Returns the measured pIC50 for the input molecule. Input: CC(=O)Nc1cccc(Oc2cccc(CNc3cc4c(cn3)[nH]c3ccccc34)c2)c1
Output line: 7.12

Input line: Returns the measured pIC50 for the input molecule. Input: c1cc(CNc2cc3c(cn2)[nH]c2ccccc23)cc(Oc2ccc3ncccc3c2)c1
Output line: 7.19

Input line: Returns the measured pIC50 for the input molecule. Input: Clc1ccccc1Oc1cccc(CNc2cc3c(cn2)[nH]c2ccccc23)c1
Output line: 7.72

Input line: Returns the measured pIC50 for the input molecule. Input: Clc1cccc(Oc2cccc(CNc3cc4c(cn3)[nH]c3ccccc34)c2)c1
Output line: 7.41

The measurements presented in this section are drawn from ChEMBL document CHEMBL5042535.
